Known koff of a selection of binders
Biological target: SARS-CoV-2 spike protein (SARS-CoV-2), P0DTC2
Experiment: HT-SPR, Carterra LSA; mAb coupled to chip, antigen injected; 1:1 fit
Details: remark: other sources report otherwise

BINDER: antibody 524 (antibody, V domains shown) VH: QVQLVESGGGVVQPGRSLRLSCAASGFTFSSYAMHWVRQAPGKGLEWVAVISYDGSNKYYADSVKGRFTISRDNSKNTLYLQMNSLRAEDTAVYYCAKAGGGSYYRGFDYWGQGTLVTVSS VL: QSVLTQPPSVSAAPGQKVTISCSGSNSNIGNNYVSWYQQLPGSAPKLLIYDNDKRPSGIPDRFSGSKSGTSATLGITGLQTGDEADYYCGAWDSSLTALVFGGGTKLTVL
koff: 0.00272 s⁻¹
//
BINDER: antibody 493 (antibody, V domains shown) VH: EVQLVESGGGLIQPGRSLRLSCAASGFTVSITYMSWVRQAPGKGLEWVSLIYSGGSSYYADSVKGRFTISRDNSKNTLYLQMNSLRAEDTAVYYCATTMVRGVIISYYYGMDVWGQGTTVTVSS VL: QSALTQPASVSGSPGQSITISCTGTSSDVGGYNYVSWYQQHPGKAPKLMIYEVSNRPSGVSNRFSGSKSGNTASLTISGLQAEDEADYYCSSYTSSSTLVFGGGTKLTVL
koff: < 1e-05 s⁻¹
//
BINDER: antibody 499 (antibody, V domains shown) VH: EVQLVESGGGLVKPGGSLRLSCAASGFTFSSYSMNWVRQAPGKGLEWVSSISSSSSYIYYADSVKGRFTISRDNAKNSLYLQMNSLRAEDTAVYYCARAPAGIVVGPDYWGQGTLVTVSS VL: NFMLTQPHSVSESPGKTVTISCTGSSGSIASNYVQWYQQRPGSAPTTVIFEDNQRPSGVPDRFSGSIDSSSNSASLTISGLKTEDEADYYCQSYHSSNPHVVFGGGTKLTVL
koff: 1.88e-05 s⁻¹
//
BINDER: antibody 495 (antibody, V domains shown) VH: QITLKESGPTLVKPTQTLTLTCTFSGFSLSTSGVGVGWIRQPPGKALEWLALIYWDDDKRYSPSLKSRLTITKDTSKNQVVLIMTNMDPVDTATYYCAHRDSSSWFDLDAFDIWGQGTMVIVSS VL: QSVLTQPPSVSEAPRQRVTISCSGSSSNIGNNAVNWYQQLPGKAPKLLIYYDDLLPSGVSDRFSGSKSGTSASLAISGLQSEDEADYYCAAWDDRLNGPVFGGGTKLTVL
koff: 1.55e-05 s⁻¹
